target: Polyunsaturated fatty acid 5-lipoxygenase (Homo sapiens); assay: Inhibition of human N-terminal His-tagged 5-LOX expressed in Escherichia coli(Rosetta) by rhodamine 123 dye-based fluorescence assay
Sequence (P09917 whole entry): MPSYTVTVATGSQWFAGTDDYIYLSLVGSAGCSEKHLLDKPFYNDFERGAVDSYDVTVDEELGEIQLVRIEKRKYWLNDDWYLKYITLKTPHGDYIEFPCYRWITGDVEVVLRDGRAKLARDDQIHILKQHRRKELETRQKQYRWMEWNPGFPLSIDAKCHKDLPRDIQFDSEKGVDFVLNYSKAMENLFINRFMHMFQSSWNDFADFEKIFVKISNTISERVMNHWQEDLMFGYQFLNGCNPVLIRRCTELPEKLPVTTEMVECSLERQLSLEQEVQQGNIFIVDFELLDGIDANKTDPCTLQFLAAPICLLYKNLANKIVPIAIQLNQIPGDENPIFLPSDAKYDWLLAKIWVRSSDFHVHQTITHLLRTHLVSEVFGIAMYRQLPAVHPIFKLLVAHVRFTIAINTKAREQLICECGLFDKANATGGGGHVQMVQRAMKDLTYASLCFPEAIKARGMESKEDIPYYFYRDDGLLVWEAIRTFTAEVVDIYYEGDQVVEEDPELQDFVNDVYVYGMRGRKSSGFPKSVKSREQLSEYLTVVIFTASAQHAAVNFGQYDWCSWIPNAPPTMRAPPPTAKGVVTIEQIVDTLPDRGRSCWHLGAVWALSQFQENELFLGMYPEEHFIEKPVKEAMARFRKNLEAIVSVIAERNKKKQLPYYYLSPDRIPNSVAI
observable: pIC50
pIC50 is defined as minus the log10 of a concentration measured in mol/L.

CC(C)/C=C/c1c(O)cc(-c2cc3ccc(O)cc3o2)cc1O	5.78

Entry `CC(C)=CCc1c(O)cc(-c2cc3ccc(O)cc3o2)cc1O` ; pIC50 = 5.63

###

assay: Inhibition of soybean 15-LOX using linoleic acid as substrate preincubated for 15 mins followed by substrate addition and measured up to 6 mins by spectrophotometric analysis; parameters: species or system Glycine max
observable: IC50 (µM)
Just the number in µM, nothing appended.

Short answer for `CCCCC(=O)c1c(O)cc(O)c(C/C=C(\C)CCC=C(C)C)c1O` : IC50 was 10.3
